Data provenance: patent US8288410B2

- Tested on: Candida albicans ATTC 90028
- Experiment: Antifungal susceptibility testing, Candida albicans
- Format: cell-based
- Protocol Conditions: Table 2
Outcome Measure: Ca MIC
Answer with the number, then the unit.

Entry C[n+]1cc(N(CCCCCC2CCCCC2)c2ccc(Cl)cc2)cc2ccccc21.[I-] [JRE-4-9-1] : reported Ca MIC = ?
1.3 µg/mL

Entry C[n+]1cc(N(CCCCCC2CCCCC2)c2cccc(Cl)c2)cc2ccccc21.[I-] [JRE-4-3-1] : reported Ca MIC = ?
2.5 µg/mL

Entry C[n+]1cc(N(CCCCCC2CCCCC2)c2ccc(OC(F)(F)F)cc2)cc2ccccc21.[I-] [JRE-3-99-1] : reported Ca MIC = ?
1.3 µg/mL

Entry COc1ccc(N(CCCCCC2CCCCC2)c2cc3ccccc3[n+](C)c2)cc1.[I-] [JRE-3-68-1] : reported Ca MIC = ?
1.3 µg/mL
